The reader will find reported protein stability index values listed item by item below.
tested on: Saccharomyces cerevisiae; test: protein stability index of tFT-peptide fusion (C-terminal peptide) (PSI (0-1 scale)); higher = more stable (slower turnover); conditions: genetic background: wild type; temperature: 30 C;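 note: PSI is a weighted mean of sequencing reads over stability bins, variants kept only with over 10 reads, mCherry proximal and sfGFP distal, peptide attached via GGGS linker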

>  <monomerSequence>
SPYLGTYAPVIK

>  <protein stability index>
0.68

$$$$
>  <monomerSequence>
PPPRPPRPPLPS

>  <protein stability index>
0.727

$$$$
>  <monomerSequence>
PCGTPHVRPLAT

>  <protein stability index>
0.719

$$$$
>  <monomerSequence>
PPPGPRQRPPPH

>  <protein stability index>
0.665

$$$$
>  <monomerSequence>
RGVDVWQGRTVP

>  <protein stability index>
0.688

$$$$
>  <monomerSequence>
RFFSGPCCGRSP

>  <protein stability index>
0.699

$$$$
>  <monomerSequence>
SCSDPPSPLPLS

>  <protein stability index>
0.686

$$$$
>  <monomerSequence>
PIELTQRASVPP

>  <protein stability index>
0.659

$$$$
>  <monomerSequence>
EWGDLDGRGEPR

>  <protein stability index>
0.74

$$$$
>  <monomerSequence>
EWSRVVRWNWDG

>  <protein stability index>
0.254

$$$$
>  <monomerSequence>
PWLLHTPLSLVF

>  <protein stability index>
0.434

$$$$
>  <monomerSequence>
FCYLCARMPYRS

>  <protein stability index>
0.662

$$$$
>  <monomerSequence>
KKRRPKINEIKE

>  <protein stability index>
0.643

$$$$
>  <monomerSequence>
FLRILRLTPRRP

>  <protein stability index>
0.728

$$$$
>  <monomerSequence>
KVKREEKRKRED

>  <protein stability index>
0.712

$$$$
>  <monomerSequence>
PSLSSPQLLLTL

>  <protein stability index>
0.685

$$$$
>  <monomerSequence>
ETVNGVGSRWGF

>  <protein stability index>
0.741

$$$$
>  <monomerSequence>
PSPPTPLPSRLF

>  <protein stability index>
0.783

$$$$
>  <monomerSequence>
GVGGRVRDALGM

>  <protein stability index>
0.68

$$$$
>  <monomerSequence>
GPPPAPSPTPSP

>  <protein stability index>
0.732

$$$$
>  <monomerSequence>
VGWHFPDGVVDC

>  <protein stability index>
0.8

$$$$
>  <monomerSequence>
IWIHSVGVECTS

>  <protein stability index>
0.486

$$$$
>  <monomerSequence>
CLVRIIRREIKG

>  <protein stability index>
0.575

$$$$
>  <monomerSequence>
AVACGGASGCGC

>  <protein stability index>
0.707

$$$$
>  <monomerSequence>
QKKPEMLNKKSY

>  <protein stability index>
0.639

$$$$
>  <monomerSequence>
CRSGERSHKMLL

>  <protein stability index>
0.63

$$$$
>  <monomerSequence>
VECGVAGSLDLA

>  <protein stability index>
0.713

$$$$
>  <monomerSequence>
PPPSPPDCLPLP

>  <protein stability index>
0.649

$$$$
>  <monomerSequence>
TWRRGSKPHVRS

>  <protein stability index>
0.724

$$$$
>  <monomerSequence>
GSFMECIREGIF

>  <protein stability index>
0.718

$$$$
>  <monomerSequence>
LPTATSFNALNS

>  <protein stability index>
0.714

$$$$
>  <monomerSequence>
EGSLHLHLSLST

>  <protein stability index>
0.66

$$$$
>  <monomerSequence>
SSPPSARSPPPP

>  <protein stability index>
0.717

$$$$
>  <monomerSequence>
GTDEWKRKYNTP

>  <protein stability index>
0.695

$$$$
>  <monomerSequence>
FLSRFLSCLFYF

>  <protein stability index>
0.576

$$$$
>  <monomerSequence>
SCRAIIDCMYNT

>  <protein stability index>
0.611

$$$$
>  <monomerSequence>
YASDGNSRLRAN

>  <protein stability index>
0.691

$$$$
>  <monomerSequence>
PGCSFSYYFFAV

>  <protein stability index>
0.573

$$$$
>  <monomerSequence>
FFSLISVFCPYP

>  <protein stability index>
0.533

$$$$
>  <monomerSequence>
GFFFFHGLCFFV

>  <protein stability index>
0.43

$$$$
>  <monomerSequence>
SFVVVFTFFFGC

>  <protein stability index>
0.312

$$$$
